Cited source: ChEMBL document CHEMBL3991601

- Experimental system: Calcium/calmodulin-dependent protein kinase type II subunit gamma (Homo sapiens, UniProt Q13555); further: in the data inactive means no Kd found up to 30 µM
- Sequence (Q13555 whole entry): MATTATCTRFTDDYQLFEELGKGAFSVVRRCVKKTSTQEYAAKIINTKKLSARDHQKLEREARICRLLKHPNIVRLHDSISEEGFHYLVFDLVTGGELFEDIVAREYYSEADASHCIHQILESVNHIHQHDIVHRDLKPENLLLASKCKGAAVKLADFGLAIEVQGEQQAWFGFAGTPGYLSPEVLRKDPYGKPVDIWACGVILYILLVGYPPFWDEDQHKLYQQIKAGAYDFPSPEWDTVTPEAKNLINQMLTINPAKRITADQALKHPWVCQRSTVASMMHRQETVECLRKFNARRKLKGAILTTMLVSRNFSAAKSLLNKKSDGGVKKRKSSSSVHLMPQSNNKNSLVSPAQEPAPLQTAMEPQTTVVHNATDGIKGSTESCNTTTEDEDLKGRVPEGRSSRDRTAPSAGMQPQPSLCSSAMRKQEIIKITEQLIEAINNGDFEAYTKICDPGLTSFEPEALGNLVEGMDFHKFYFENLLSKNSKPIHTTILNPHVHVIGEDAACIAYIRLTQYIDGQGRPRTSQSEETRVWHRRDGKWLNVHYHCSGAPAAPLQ
Activity calls are given as the source filed them.
Select the correct class. Options are label 1 (active), label 0 (inactive) and nothing else.

Query block: For CNC(=O)CN1CCC(Oc2cc3c(Nc4cccc(Cl)c4F)ncnc3cc2OC)CC1 , what call appears in the results of this test?
Result block: label 0

Query block: Another: COc1cc(N2CCC(N3CCN(C)CC3)CC2)ccc1Nc1ncnc(Nc2ccccc2S(=O)(=O)C(C)C)n1
Result block: label 1

Query block: Entry Cc1cc([C@@H](C)Nc2ccccc2C(=O)O)c2nc(N3CCOCC3)cc(=O)n2c1 please
Result block: label 0

Next:
Query block: // return assay outcome for Cc1c(F)cc(C(=O)NC2CC2)cc1-c1ccc(C(=O)NCC(C)(C)C)cn1
Result block: label 0

Query block: Same question, CC[C@H](Nc1ncnc2[nH]cnc12)c1nc2cccc(F)c2c(=O)n1-c1ccccc1 this time
Result block: label 0

Query block: One more compound: COC(=O)[C@@]1(O)C[C@H]2O[C@]1(C)n1c3ccccc3c3c4c(c5c6ccccc6n2c5c31)C(=O)NC4 [K-252A]
Result block: label 1

----------
- Experimental system: Protein kinase C beta type (Homo sapiens, UniProt P05771); further: in the data inactive means no Kd found up to 30 µM
- Sequence (P05771 whole entry): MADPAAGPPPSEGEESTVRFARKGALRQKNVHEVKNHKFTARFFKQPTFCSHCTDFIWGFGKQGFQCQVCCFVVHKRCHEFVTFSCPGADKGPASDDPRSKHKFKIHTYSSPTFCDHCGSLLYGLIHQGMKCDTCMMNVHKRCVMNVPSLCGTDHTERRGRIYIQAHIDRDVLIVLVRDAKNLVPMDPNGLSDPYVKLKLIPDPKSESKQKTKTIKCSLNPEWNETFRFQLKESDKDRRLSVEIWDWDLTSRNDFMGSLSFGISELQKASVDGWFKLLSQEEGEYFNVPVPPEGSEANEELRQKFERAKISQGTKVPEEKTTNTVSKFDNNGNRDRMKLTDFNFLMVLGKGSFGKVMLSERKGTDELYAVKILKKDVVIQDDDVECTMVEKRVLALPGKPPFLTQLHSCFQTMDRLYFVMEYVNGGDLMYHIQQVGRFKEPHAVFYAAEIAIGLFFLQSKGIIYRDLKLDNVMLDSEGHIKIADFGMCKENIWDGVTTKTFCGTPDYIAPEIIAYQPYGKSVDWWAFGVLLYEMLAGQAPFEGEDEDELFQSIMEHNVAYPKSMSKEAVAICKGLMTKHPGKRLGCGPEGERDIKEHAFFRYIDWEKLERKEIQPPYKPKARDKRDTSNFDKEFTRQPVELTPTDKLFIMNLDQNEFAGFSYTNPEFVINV
Calls of active or inactive are those of the source.
Entry note: the call must match one of active, inactive

Previously resolved entries follow.
Query block: Please state the recorded outcome for this compound: CCCS(=O)(=O)Nc1ccc(F)c(C(=O)c2c[nH]c3ncc(-c4ccc(Cl)cc4)cc23)c1F [VEMURAFENIB]
Result block: inactive

Query block: Record: COc1ccc(-c2ccc3c(N4CCOC[C@@H]4C)nc(N4CCOC[C@@H]4C)nc3n2)cc1CO [AZD-8055]
Result block: inactive

Query block: Next record, please: CN(C)C(=O)c1cc2cnc(Nc3ccc(N4CCNCC4)cn3)nc2n1C1CCCC1 [RIBOCICLIB]
Result block: inactive

Query block: Try the compound CCn1c(-c2nonc2N)nc2c(C#CC(C)(C)O)ncc(OC[C@H]3CCCNC3)c21 [GSK-690693]
Result block: active

Query block: Same for CN1N=C(N)c2cn([C@@H]3O[C@H](COP(=O)(O)O)[C@@H](O)[C@H]3O)c3ncnc1c23 [TRICIRIBINE PHOSPHATE]
Result block: inactive

Query block: Check CC[C@H](Nc1ncnc2[nH]cnc12)c1nc2cccc(F)c2c(=O)n1-c1ccccc1 [IDELALISIB] too.
Result block: inactive

Query block: Consider next the compound Cc1c(F)cc(C(=O)NC2CC2)cc1-c1ccc(C(=O)NCC(C)(C)C)cn1 [LOSMAPIMOD] in the same way.
Result block: inactive

Query block: Please give the result for COC(=O)N[C@@H](C)CNc1nccc(-c2cn(C(C)C)nc2-c2cc(Cl)cc(NS(C)(=O)=O)c2F)n1 [ENCORAFENIB] too.
Result block: inactive

Query block: Moving on to CCS(=O)(=O)N1CC(CC#N)(n2cc(-c3ncnc4[nH]ccc34)cn2)C1 [BARICITINIB]
Result block: active

Query block: Queued: OCCn1cc(-c2cnc3nnn(Cc4ccc5ncccc5c4)c3n2)cn1 [PF-04217903]
Result block: inactive

Further cases:
Query block: Which outcome was entered for the compound O=C(O)[C@]1(Cc2cccc(Nc3nccs3)n2)CC[C@@H](Oc2cccc(Cl)c2F)CC1 [MK-5108] in this test?
Result block: inactive

Query block: Please do the same for CC[C@@H]1C(=O)N(C)c2cnc(Nc3ccc(C(=O)N[C@H]4CC[C@H](N5CCN(CC6CC6)CC5)CC4)cc3OC)nc2N1C(C)C [VOLASERTIB] as well.
Result block: inactive

----------
Overview of reported Kd across a group of compounds:
- Experimental system: Phosphatidylinositol 5-phosphate 4-kinase type-2 gamma (Homo sapiens, UniProt Q8TBX8); further: in the data inactive means no Kd found up to 30 µM
- Sequence (Q8TBX8 whole entry): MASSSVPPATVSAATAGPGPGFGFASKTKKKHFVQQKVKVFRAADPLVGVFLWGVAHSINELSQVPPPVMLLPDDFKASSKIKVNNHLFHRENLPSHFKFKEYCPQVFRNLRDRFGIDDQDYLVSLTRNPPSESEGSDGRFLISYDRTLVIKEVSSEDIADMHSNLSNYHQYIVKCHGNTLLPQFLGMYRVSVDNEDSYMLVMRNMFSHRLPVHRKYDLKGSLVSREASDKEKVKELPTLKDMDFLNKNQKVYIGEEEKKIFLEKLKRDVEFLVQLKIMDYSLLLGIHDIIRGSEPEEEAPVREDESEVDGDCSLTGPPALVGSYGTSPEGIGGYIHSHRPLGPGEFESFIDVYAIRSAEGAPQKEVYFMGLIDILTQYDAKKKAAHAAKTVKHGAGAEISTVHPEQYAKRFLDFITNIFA
Activity calls are given as the source filed them.

Worked cases, answers included:
Query block: Kd for CO[C@H]1C[C@@H]2CC[C@@H](C)[C@@](O)(O2)C(=O)C(=O)N2CCCC[C@H]2C(=O)O[C@H]([C@H](C)C[C@@H]2CC[C@@H](OCCO)[C@H](OC)C2)CC(=O)[C@H](C)/C=C(\C)[C@@H](O)[C@@H](OC)C(=O)[C@H](C)C[C@H](C)/C=C/C=C/C=C/1C ?
Result block: > 30 µM (inactive)

Query block: // repeat for Cc1cc(Nc2cc(N3CCN(C)CC3)nc(/C=C/c3ccccc3)n2)n[nH]1 and report
Result block: > 30 µM (inactive)

Here's the next entry for you.
Query block: Value lookup for Kd; key = O=C(c1ccc(F)c(F)c1Nc1ccc(I)cc1F)N1CC(O)([C@@H]2CCCCN2)C1
Result block: > 30 µM (inactive)

----------
Here's a batch of compounds along with measured Kd for EKC/KEOPS complex subunit TP53RK (Homo sapiens, UniProt Q96S44).
Active and inactive are the calls of the source.

Query block: Any idea what Kd was measured for CNC(=O)c1ccc(C)c(-n2c(C)cc(OCc3ccc(F)cc3F)c(Br)c2=O)c1 ?
Result block: > 30 µM (inactive)

Query block: Cc1cc2c(F)c(Oc3ncnn4cc(OC[C@@H](C)OC(=O)[C@H](C)N)c(C)c34)ccc2[nH]1 [BRIVANIB ALANINATE] , same question.
Result block: > 30 µM (inactive)

Query block: Also check OCCn1cc(-c2cnc3nnn(Cc4ccc5ncccc5c4)c3n2)cn1
Result block: > 30 µM (inactive)

Query block: Record: Cc1ccc(S(=O)(=O)Nc2nc3ccccc3nc2Nc2ccc3nsnc3c2)cc1
Result block: > 30 µM (inactive)

Query block: Thanks! And COCCNCc1ccc(-c2cc3nccc(Oc4ccc(NC(=S)NC(=O)Cc5ccc(F)cc5)cc4F)c3s2)nc1 ?
Result block: > 30 µM (inactive)

New cases:
Query block: Entry under review: C[C@@H](c1ccc2nccn2c1)n1nnc2ncc(-c3cnn(C)c3)nc21 . Reported Kd?
Result block: > 30 µM (inactive)

Query block: Cool, now C=CC(=O)N1CCC(Oc2cc3c(Nc4ccc(Cl)c(Cl)c4F)ncnc3cc2OC)CC1
Result block: > 30 µM (inactive)

----------
- Experimental system: Ephrin type-A receptor 5 (Homo sapiens); further: in the data inactive means no Kd found up to 30 µM
- Sequence (P54756 whole entry): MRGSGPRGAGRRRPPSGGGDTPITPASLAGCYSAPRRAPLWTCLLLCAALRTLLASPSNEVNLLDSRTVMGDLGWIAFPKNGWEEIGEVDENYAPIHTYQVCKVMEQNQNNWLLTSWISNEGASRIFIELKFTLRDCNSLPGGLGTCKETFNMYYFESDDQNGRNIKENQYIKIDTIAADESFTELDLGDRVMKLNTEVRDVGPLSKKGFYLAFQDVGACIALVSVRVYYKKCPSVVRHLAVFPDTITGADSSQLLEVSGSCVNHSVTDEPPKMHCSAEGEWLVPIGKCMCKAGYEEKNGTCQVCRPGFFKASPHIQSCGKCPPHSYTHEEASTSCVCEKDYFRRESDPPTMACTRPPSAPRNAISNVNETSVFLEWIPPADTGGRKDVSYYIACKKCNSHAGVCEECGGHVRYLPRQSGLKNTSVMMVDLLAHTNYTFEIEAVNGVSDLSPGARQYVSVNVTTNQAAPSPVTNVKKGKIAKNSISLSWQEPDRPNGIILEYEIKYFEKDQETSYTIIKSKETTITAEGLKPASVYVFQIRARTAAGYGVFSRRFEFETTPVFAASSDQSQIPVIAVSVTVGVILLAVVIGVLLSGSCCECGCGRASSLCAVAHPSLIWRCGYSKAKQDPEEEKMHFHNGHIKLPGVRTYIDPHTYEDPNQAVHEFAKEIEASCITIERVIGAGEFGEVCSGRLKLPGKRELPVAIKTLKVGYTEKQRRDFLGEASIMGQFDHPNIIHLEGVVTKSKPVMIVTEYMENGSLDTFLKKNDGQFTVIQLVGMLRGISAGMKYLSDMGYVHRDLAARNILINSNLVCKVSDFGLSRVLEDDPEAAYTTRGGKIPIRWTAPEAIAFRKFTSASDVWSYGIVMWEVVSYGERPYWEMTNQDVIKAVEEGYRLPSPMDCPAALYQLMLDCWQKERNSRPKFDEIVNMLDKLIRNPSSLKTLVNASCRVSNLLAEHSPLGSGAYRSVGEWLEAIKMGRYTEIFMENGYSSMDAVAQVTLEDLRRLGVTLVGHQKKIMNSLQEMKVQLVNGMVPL
Activity calls are given as the source filed them.
I would appreciate it if you answered using one of these outcomes: active, inactive

Answered examples (10):
Query block: How was COC(=O)[C@@]1(O)C[C@H]2O[C@]1(C)n1c3ccccc3c3c4c(c5c6ccccc6n2c5c31)C(=O)NC4 [K-252A] classified in this test?
Result block: inactive

Query block: Lookup CNC(=O)CN1CCC(Oc2cc3c(Nc4cccc(Cl)c4F)ncnc3cc2OC)CC1
Result block: active

Query block: What do we get for Cn1cc(-c2ccc(F)c(C(F)(F)F)c2)nc1C1CCN(c2ncnc3[nH]ncc23)CC1 ?
Result block: inactive

Query block: Follow-up entry: COc1cc(OC)c(/C=C/S(=O)(=O)Cc2ccc(OC)c(NCC(=O)O)c2)c(OC)c1
Result block: inactive

Query block: CN1CCC(COc2cnc(-c3cccc(Cn4nc(-c5cccc(C#N)c5)ccc4=O)c3)nc2)CC1 ?
Result block: inactive

Query block: What would you report for CN1N=C(N)c2cn([C@@H]3O[C@H](COP(=O)(O)O)[C@@H](O)[C@H]3O)c3ncnc1c23 [TRICIRIBINE PHOSPHATE] ?
Result block: inactive

Query block: What do we get for CC[C@@H]1C(=O)N(C)c2cnc(Nc3ccc(C(=O)N[C@H]4CC[C@H](N5CCN(CC6CC6)CC5)CC4)cc3OC)nc2N1C(C)C ?
Result block: inactive

Query block: Follow-up entry: Cc1cc(-c2cc(O)ccc2Cl)cc2nnc(Nc3ccc(OCCN4CCCC4)cc3)nc12
Result block: active

Query block: Proceed to Cc1cc(Nc2cc(N3CCN(C)CC3)nc(/C=C/c3ccccc3)n2)n[nH]1
Result block: inactive

Query block: Another compound to look at: CCc1cnn2c(NCc3ccc[n+]([O-])c3)cc(N3CCCC[C@H]3CCO)nc12
Result block: inactive

***
Query block: Short answer needed: outcome of this test for CN1CC[C@@H](c2c(O)cc(O)c3c(=O)cc(-c4ccccc4Cl)oc23)[C@@H]1CO ?
Result block: inactive

Query block: Request: COCCNCc1ccc(-c2cc3nccc(Oc4ccc(NC(=S)NC(=O)Cc5ccc(F)cc5)cc4F)c3s2)nc1
Result block: inactive

Query block: Next record, please: CC[C@H](Nc1ncnc2[nH]cnc12)c1nc2cccc(F)c2c(=O)n1-c1ccccc1
Result block: inactive

Query block: Same lookup for Cc1cc([C@@H](C)Nc2ccccc2C(=O)O)c2nc(N3CCOCC3)cc(=O)n2c1 , please.
Result block: inactive

Query block: For COC(=O)N[C@@H](C)CNc1nccc(-c2cn(C(C)C)nc2-c2cc(Cl)cc(NS(C)(=O)=O)c2F)n1 then?
Result block: inactive

Query block: Next record, please: Cc1c(F)cc(C(=O)NC2CC2)cc1-c1ccc(C(=O)NCC(C)(C)C)cn1
Result block: inactive
